This collection of values is drawn from patent US20230374144A1.

# TARGET_SYSTEM: T1, IL-4R with mouse Fc-tag (human, UniProt P24394 26-232)
# T1 construct: not shown: mouse Fc-tag
# ASSAY_PROCEDURE: competitive ELISA: antibody dilutions with 0.5 µg/mL IL-4R-mouse Fc on plate-captured biotinylated IL-4, anti-mouse-Fc-HRP
METRIC: IC50
Write the numeric value and follow it with the unit.

Returns the measured IC50 for the input binder. Input: C27-24-56 (antibody, human IgG4, V domains shown) VH: EVQLLESGGGLVQPGGSLRLSCAASGFTLSSYAMHWVRQAPGKGLEYVSGISPTSGSTYYANSVKGRFTISRDNPKNTLFLQMSSLRAEDTAVYYCVRVKVRYRGGMDVWGQGTTVTVSS VL: EIVLTQSPGTLSLSPGERATLSCRASQSVSSAYLAWYQQKPGQAPRLLIYGTSRRATGIPDRFSGSGSGTDFTLTISRLEPEDFAVYYCQLYGASSVTFGQGTKLEIK
0.0632 µg/mL
